Please provide measured IC50 for the entries that follow.
Biological target: (Homo sapiens)
Construct: human IGF1R kinase domain residues M954-C1367; made in house; host or cells: baculovirus expression (insect cells)
Sequence (P08069 954-1367): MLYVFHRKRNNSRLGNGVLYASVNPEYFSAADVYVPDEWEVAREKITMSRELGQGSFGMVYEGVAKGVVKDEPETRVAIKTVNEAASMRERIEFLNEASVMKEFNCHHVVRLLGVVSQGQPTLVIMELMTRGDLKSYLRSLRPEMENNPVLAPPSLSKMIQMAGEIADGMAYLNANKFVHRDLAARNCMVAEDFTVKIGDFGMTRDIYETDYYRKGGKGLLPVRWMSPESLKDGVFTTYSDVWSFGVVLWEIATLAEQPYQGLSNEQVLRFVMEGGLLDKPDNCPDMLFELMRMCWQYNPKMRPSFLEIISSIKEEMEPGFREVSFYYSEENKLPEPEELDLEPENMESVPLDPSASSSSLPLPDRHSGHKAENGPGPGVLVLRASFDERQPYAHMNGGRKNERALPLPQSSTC
Assay: IGF1R kinase assay (LCCA), IGF 0P
Assay type: biochemical
Details: IGF1R kinase LCCA assay

Recall and state the measured IC50 for CCCCNc1cc(C)nc(Nc2ccc(N3CCOCC3)cc2)n1 .
> 5 µM

Give me measured IC50, please, for this compound: Cc1cc(Nc2cc(C3CC3)[nH]n2)nc(NCc2ccco2)n1
0.5 to 5 µM

State, in one line, measured IC50 of Clc1ccccc1CCNc1ncc(Br)c(Nc2cc(C3CC3)n[nH]2)n1
> 5 µM

Please list IC50 recorded for the compound CC(C)(C)c1cc(Nc2nc(NCc3cc(-c4ccccc4)no3)ncc2Br)n[nH]1
0.05 to 0.5 µM

Complete the entry with IC50 for Brc1cnc(NC2CCCc3ccccc32)nc1Nc1cc(C2CC2)[nH]n1 (centres unmarked)
0.05 to 0.5 µM

For Brc1cnc(NCc2cnn(-c3ccccc3)n2)nc1Nc1cc(C2CC2)n[nH]1 , write its IC50.
0.5 to 5 µM

State its IC50 for this compound: O=C(c1ccccc1)c1ccccc1Nc1ncc(Br)c(Nc2cc(C3CC3)n[nH]2)n1
> 5 µM

Please look at this compound and report its IC50: Cc1cc(Nc2cc(C3CC3)n[nH]2)nc(Nc2ccc(C3CCN(C(=O)OC(C)(C)C)CC3)cc2)n1
0.5 to 5 µM
